Values were extracted from patent US8999976B2.

Biological target: ΔF508-CFTR (Homo sapiens, UniProt P13569, DEL508-508)
Sequence (P13569 with tags, fused parts or gaps DEL508-508): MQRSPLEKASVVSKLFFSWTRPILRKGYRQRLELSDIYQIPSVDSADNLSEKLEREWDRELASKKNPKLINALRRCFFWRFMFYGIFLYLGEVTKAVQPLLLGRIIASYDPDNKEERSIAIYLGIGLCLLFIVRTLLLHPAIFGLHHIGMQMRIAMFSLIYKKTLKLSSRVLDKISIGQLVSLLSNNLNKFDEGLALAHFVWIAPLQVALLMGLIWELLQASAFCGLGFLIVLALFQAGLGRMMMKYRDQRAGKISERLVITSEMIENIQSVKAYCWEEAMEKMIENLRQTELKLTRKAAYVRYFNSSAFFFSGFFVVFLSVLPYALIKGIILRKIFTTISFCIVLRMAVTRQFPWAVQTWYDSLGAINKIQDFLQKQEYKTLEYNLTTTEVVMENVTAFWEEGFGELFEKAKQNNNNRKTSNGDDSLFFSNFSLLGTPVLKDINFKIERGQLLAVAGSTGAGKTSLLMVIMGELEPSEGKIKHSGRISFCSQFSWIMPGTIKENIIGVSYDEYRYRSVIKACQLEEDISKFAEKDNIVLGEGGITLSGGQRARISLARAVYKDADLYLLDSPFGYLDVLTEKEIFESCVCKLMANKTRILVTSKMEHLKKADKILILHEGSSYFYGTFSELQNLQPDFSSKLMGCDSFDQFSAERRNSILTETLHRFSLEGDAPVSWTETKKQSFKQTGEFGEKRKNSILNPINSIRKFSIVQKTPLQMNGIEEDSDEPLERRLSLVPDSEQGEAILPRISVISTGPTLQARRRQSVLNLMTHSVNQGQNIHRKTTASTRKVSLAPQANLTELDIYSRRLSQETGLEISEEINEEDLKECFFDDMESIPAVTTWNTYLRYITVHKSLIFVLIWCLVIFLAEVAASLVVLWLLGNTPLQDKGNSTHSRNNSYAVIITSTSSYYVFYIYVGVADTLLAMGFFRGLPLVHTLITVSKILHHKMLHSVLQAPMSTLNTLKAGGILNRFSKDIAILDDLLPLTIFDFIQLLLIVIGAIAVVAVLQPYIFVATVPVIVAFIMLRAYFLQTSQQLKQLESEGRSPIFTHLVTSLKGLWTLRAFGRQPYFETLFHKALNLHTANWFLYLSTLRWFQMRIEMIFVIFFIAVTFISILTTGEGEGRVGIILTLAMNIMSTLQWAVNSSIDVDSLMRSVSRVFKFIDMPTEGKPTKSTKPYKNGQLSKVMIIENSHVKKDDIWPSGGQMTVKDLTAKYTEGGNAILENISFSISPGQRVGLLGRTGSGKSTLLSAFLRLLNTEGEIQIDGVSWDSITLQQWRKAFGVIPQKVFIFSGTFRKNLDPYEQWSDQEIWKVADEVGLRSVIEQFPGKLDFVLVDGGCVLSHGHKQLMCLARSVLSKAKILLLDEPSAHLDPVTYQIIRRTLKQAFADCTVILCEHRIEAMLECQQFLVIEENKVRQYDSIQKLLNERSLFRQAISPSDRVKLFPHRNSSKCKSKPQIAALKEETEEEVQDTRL
Assay: Membrane potential optical assay for potentiators of ΔF508-CFTR (FLIPR III, voltage sensing dyes)
Settings: temperature-corrected ΔF508 CFTR NIH 3T3 cells, forskolin activation
Description: The assay utilizes fluorescent voltage sensing dyes to measure changes in membrane potential using a fluorescent plate reader (e.g., FLIPR III, Molecular Devices, Inc.) as a readout for increase in functional ΔF508-CFTR in NIH 3T3 cells. To identify potentiators of ΔF508-CFTR, a double-addition HTS assay format was developed. […]
pEC50: −log10 of the molar value.
MEASUREMENT_KIND: pEC50

Examples with answers:
INSERT INTO measurements (compound, target_desc, measurement_kind, value) VALUES
  ('CN(C)CC#Cc1cc(C2CCCC2)c(O)cc1NC(=O)[C@@H]1CNc2ccccc2O1 [Compound 37]', 'ΔF508-CFTR (Homo sapiens, UniProt P13569, DEL508-508)', 'pEC50', '> 5.30'),
  ('Cc1cc(C2CCCC2)c(O)cc1NC(=O)[C@H]1CNc2cc(C#N)ccc2O1 [Compound 88]', 'ΔF508-CFTR (Homo sapiens, UniProt P13569, DEL508-508)', 'pEC50', '> 5.30'),
  ('CC(C)(C)c1ccc(NC(=O)C2CNc3ccc(C(F)(F)F)cc3O2)cc1O (stereo not drawn) [Compound 70]', 'ΔF508-CFTR (Homo sapiens, UniProt P13569, DEL508-508)', 'pEC50', '> 5.30'),
  ('Cc1ccc(NC(=O)C2CNc3cc(OC(F)(F)F)ccc3O2)c(CCN2CC[C@@H](F)C2)c1 (stereo partly drawn) [Compound 119]', 'ΔF508-CFTR (Homo sapiens, UniProt P13569, DEL508-508)', 'pEC50', '4.70 to 5.30');

Write down pEC50 measured for item CCOC(=O)CCc1cc(C2CCCC2)c(O)cc1NC(=O)C1CNc2cc(OC(F)(F)F)ccc2O1 (stereo not drawn) [Compound 4] > 5.30

Write down pEC50 measured for item O=C(Nc1cc(O)c(C2CCCC2)cc1C(F)(F)F)C1CNc2ccc(F)cc2O1 (stereo not drawn) [Compound 31] > 5.30

Write down pEC50 measured for item Cc1ccc(NC(=O)C2CNc3cc(OC(F)(F)F)ccc3O2)c(C#CCN2CCOCC2)c1 (stereo not drawn) [Compound 100] > 5.30

Write down pEC50 measured for item Cc1cc(C2CCCC2)c(O)cc1NC(=O)[C@@H]1CNc2cc(C#N)ccc2O1 [Compound 25] > 5.30

Write down pEC50 measured for item CC(C)(C)c1ccc(NC(=O)C2CNc3ccccc3O2)cc1F (stereo not drawn) [Compound 92] > 5.30

Write down pEC50 measured for item CC(C)(C)c1ccc(NC(=O)C2CNc3c(F)cccc3O2)cc1O (stereo not drawn) [Compound 78] > 5.30

Write down pEC50 measured for item Cc1ccc2c(c1)NCC(C(=O)Nc1cc(O)c(C3(C)CCCCC3)cc1F)O2 (stereo not drawn) [Compound 97] > 5.30

Write down pEC50 measured for item CC1(c2cc(F)c(NC(=O)[C@H]3CNc4ccccc4O3)cc2O)CCCCC1 [Compound 80] > 5.30

Write down pEC50 measured for item COC(=O)Cc1cc(C2CCCC2)c(O)cc1NC(=O)C1CNc2cc(OC(F)(F)F)ccc2O1 (stereo not drawn) [Compound 75] > 5.30

Write down pEC50 measured for item CN(C)CC#Cc1cc(C2CCCC2)c(O)cc1NC(=O)C1(C)CNc2cc(OC(F)(F)F)ccc2O1 (stereo not drawn) [Compound 79] > 5.30

Write down pEC50 measured for item COc1cc(NC(=O)C2CNc3ccc(F)cc3O2)c(Cl)cc1C(C)(C)O (stereo not drawn) [Compound 82] > 5.30
